Biological target: HCV NS3 protease (UniProt P26663)
Sequence (P26663 1027-1206, other chains not shown): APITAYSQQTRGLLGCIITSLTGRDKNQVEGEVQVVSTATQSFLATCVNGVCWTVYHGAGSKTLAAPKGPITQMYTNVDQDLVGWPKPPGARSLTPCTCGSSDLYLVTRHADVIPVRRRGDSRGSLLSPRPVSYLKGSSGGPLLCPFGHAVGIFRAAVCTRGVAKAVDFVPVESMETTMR
Format: biochemical, HCV genotype 1b
Parameters: rows headed: IC50 (μM); IC50 (μM)
Conditions: Table 6
PARAMETER MEASURED: IC50

Requested field: IC50. Item: C=CC1CC1(NC(=O)C1CC(Oc2cc(-c3csc(NC(C)=O)n3)nc3cc(N(C)C)ccc23)CN1C(=O)C(NC(=O)OC(C)(C)C)C(C)(C)C)C(=O)O (stereo not drawn) [compound 628]
11 nM

====

Each entry below carries its recorded pIC50.
Molecular target: HCV NS3 protease (UniProt P26663)
Format: biochemical, HCV genotype 1b
Design: rows headed: IC50 (μM); IC50 (μM)
Conditions: Table 9
When answering, recall that pIC50 equals minus log10 of the concentration in mol/L, and write that number alone.

Solved cases below.
| COMPOUND | SYSTEM NAME | pIC50 |
| --- | --- | --- |
| C=CC1CC1(NC(=O)C1CC(Oc2cc(-c3ccccc3)nc3cc(OC)ccc23)CN1C(=O)C(NC(=O)OC(C)(C)C)C(C)(C)C)C(=O)O (centres unmarked) | HCV NS3 protease (UniProt P26663) | 7.60 |
| C=CC1CC1(NC(=O)C1CC(Oc2cc(-c3ccccc3)nc3cc(OC)ccc23)CN1C(=O)C(NC(=O)c1ccc[nH]1)C(C)(C)C)C(=O)O (centres unmarked) | HCV NS3 protease (UniProt P26663) | 6.52 |
| C=CC1CC1(NC(=O)C1CC(Oc2cc(-c3ccccc3)nc3cc(OC)ccc23)CN1C(=O)C(NC(=O)c1cccc(O)c1)C(C)(C)C)C(=O)O (centres unmarked) | HCV NS3 protease (UniProt P26663) | 7.02 |
| C=CC1CC1(NC(=O)C1CC(Oc2cc(-c3ccccc3)nc3cc(OC)ccc23)CN1C(=O)C(NC(=O)OC(C)C(C)(C)C)C(C)(C)C)C(=O)O (centres unmarked) | HCV NS3 protease (UniProt P26663) | 7.25 |

Now look at this entry.
Requested field: pIC50. Item: C=CC1CC1(NC(=O)C1CC(Oc2cc(-c3ccccc3)nc3cc(OC)ccc23)CN1C(=O)C(NC(=O)c1ccccc1)C(C)(C)C)C(=O)O (centres unmarked)
7.14

====

Molecular target: HCV NS3 protease type 1b / NS4A cofactor peptide (Hepatitis C virus genotype 1b, UniProt P26663)
Construct: recombinant HCV NS3 protease (amino acid 1027 to 1206) was cloned in the pET11d bacterial expression vector
Sequence (P26663 1027-1206, other chains not shown): as above
Assay: Recombinant HCV NS3 protease/NS4A cofactor peptide radiometric assay (Example 37)
PARAMETER MEASURED: IC50 (nM)
# output: bare number, implied unit nM

Requested field: IC50. Item: `C=C[C@@H]1C[C@]1(NC(=O)[C@@H]1C[C@@H](Oc2cc(-c3ccccc3)nc3cc(OC)ccc23)CN1C(=O)[C@@H](NC(=O)OC(C)(C)C)C(C)C)C(=O)O`
50

====

Target: full length NS3-NS4A heterodimer protein (His-NS3-NS4AFL) (Hepatitis C virus genotype 1b, UniProt P26663)
Construct: The full length mature NS3 and NS4A heterodimer protein (His-NS3-NS4AFL) was expressed
Sequence (P26663 1027-1657): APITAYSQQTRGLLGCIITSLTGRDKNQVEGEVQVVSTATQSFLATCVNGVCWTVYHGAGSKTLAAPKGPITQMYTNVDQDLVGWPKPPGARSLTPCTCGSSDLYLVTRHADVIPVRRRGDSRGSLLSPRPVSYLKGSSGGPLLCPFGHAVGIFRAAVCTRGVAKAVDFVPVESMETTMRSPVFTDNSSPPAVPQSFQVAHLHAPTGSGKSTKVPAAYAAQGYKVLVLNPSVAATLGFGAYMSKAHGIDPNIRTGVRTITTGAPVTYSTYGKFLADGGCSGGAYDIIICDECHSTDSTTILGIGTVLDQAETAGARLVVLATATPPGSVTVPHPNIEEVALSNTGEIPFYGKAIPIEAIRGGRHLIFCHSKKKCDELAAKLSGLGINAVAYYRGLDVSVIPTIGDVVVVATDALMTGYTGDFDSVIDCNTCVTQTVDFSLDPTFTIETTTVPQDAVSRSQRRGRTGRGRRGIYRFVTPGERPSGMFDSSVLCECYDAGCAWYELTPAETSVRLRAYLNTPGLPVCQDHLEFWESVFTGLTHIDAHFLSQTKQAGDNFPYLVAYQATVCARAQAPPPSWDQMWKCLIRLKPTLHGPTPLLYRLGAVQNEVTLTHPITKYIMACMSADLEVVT
Sequence (P26663 1658-1711): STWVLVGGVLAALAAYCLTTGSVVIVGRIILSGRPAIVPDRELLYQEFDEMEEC
Assay: Full-length NS3-NS4A heterodimer protein assay (Example 38)
PARAMETER MEASURED: pIC50
When answering, recall that pIC50 equals minus log10 of the concentration in mol/L, and write that number alone.

Requested field: pIC50. Item: `C=C[C@@H]1C[C@]1(NC(=O)[C@@H]1C[C@@H](Oc2cc(-c3ccccc3)nc3cc(OC)ccc23)CN1C(=O)[C@@H](NC(=O)OC(C)(C)C)C(C)C)C(=O)O`
7.52
